Measurement description: Single-dose PK and bioavailability of ZB716 in rats
Assay type: in vivo
Condition: male, Sprague Dawley, rat, plasma; single dose, PO 100 mg/kg/day, M; read-out: Tmax (median)
Test readout: Tmax (min)
Answers are plain numbers, in min.

// Tmax lookup, key: C[C@]12CC[C@@H]3c4ccc(B(O)O)cc4C[C@@H](CCCCCCCCC[S+]([O-])CCCC(F)(F)C(F)(F)F)[C@H]3[C@@H]1CC[C@@H]2O (stereo partly shown) [ZB716, fulvestrant-3-boronic acid] 30

====

Measurement description: 4-week repeat-dose toxicity/TK study in rats
Format: in vivo, Sprague Dawley rats
Condition: female, Sprague Dawley (Crl: CD (SD)), rat, plasma, po, 400 mg/kg/day, day 28, PO 400 mg/kg/day, Female
Test readout: Tmax (h)
One number for each entry, in h.

// Tmax lookup, key: C[C@]12CC[C@@H]3c4ccc(B(O)O)cc4C[C@@H](CCCCCCCCC[S+]([O-])CCCC(F)(F)C(F)(F)F)[C@H]3[C@@H]1CC[C@@H]2O (stereo partly shown) [ZB716, fulvestrant-3-boronic acid] 2
